// molecules with reported IC50 on Epithelial discoidin domain-containing receptor 1 (Homo sapiens, UniProt Q08345), multi-publication

These solved cases illustrate the format of a correct answer.
{"Chemical Smiles": "O=C(Nc1cc(OCCN2CCCC2)cc(C(F)(F)F)c1)c1csc2c1CCN(C(=O)c1cnc3ccccn13)C2", "Tgt": "Epithelial discoidin domain-containing receptor 1 (Homo sapiens, UniProt Q08345)", "Observed Result": "25 to 50 nM"}
{"Chemical Smiles": "O=C(Nc1cccc(OC(F)(F)F)c1)c1ccc2c(c1)N(Cc1cnc3ccccn13)CC2", "Tgt": "Epithelial discoidin domain-containing receptor 1 (Homo sapiens, UniProt Q08345)", "Observed Result": "< 25 nM"}
{"Chemical Smiles": "O=C(Nc1cccc(C(F)(F)F)c1)c1csc2c1CCN(C(=O)c1cnc3cnccn13)C2", "Tgt": "Epithelial discoidin domain-containing receptor 1 (Homo sapiens, UniProt Q08345)", "Observed Result": "< 25 nM"}
{"Chemical Smiles": "O=C(Nc1cc(C(F)(F)F)ncn1)c1csc2c1CCN(C(=O)c1cnc3ccccn13)C2", "Tgt": "Epithelial discoidin domain-containing receptor 1 (Homo sapiens, UniProt Q08345)", "Observed Result": "25 to 50 nM"}
{"Chemical Smiles": "COCC(=O)Nc1ccncc1CN1CCc2c(C(=O)Nc3cccc(C(F)(F)F)c3)csc2C1", "Tgt": "Epithelial discoidin domain-containing receptor 1 (Homo sapiens, UniProt Q08345)", "Observed Result": "25 to 50 nM"}
{"Chemical Smiles": "Cc1n[nH]c2ncc(CN3CCc4ccc(C(=O)Nc5cc(C(C)(C)C)on5)cc43)cc12", "Tgt": "Epithelial discoidin domain-containing receptor 1 (Homo sapiens, UniProt Q08345)", "Observed Result": "< 25 nM"}
{"Chemical Smiles": "Cc1n[nH]c2ncc(CN3CCc4ccc(C(=O)Nc5cc(CN(C)C)nc(C(F)(F)F)c5)cc43)cc12", "Tgt": "Epithelial discoidin domain-containing receptor 1 (Homo sapiens, UniProt Q08345)", "Observed Result": "< 25 nM"}

Consider the record given below.
QUERY: Give IC50 for COCCOc1ccc(NC(=O)c2csc3c2CCN(C(=O)c2cnc4ccccn24)C3)cc1C(F)(F)F tested on Epithelial discoidin domain-containing receptor 1 (Homo sapiens, UniProt Q08345).
RESULT: 25 to 50 nM
